- Test system: Gaucher patient fibroblasts (L444P/L444P, GM08760)
- assay_procedure: GPN induced calcium release phenotypic assay on Gaucher patient cells
- Assay type: cell-based, human
- assay_context: Homo sapiens, Fibroblast; Gaucher patient cells, 72 hours compound treatment, 12-point curve in triplicate
pEC50: −log10 of the molar value.
Tag: True if measured pEC50 is not below 6, False if it is.

compound	label
CCC(C(=O)c1ccc(OCCN(C)C)cc1)c1ccccc1-c1ccc(F)cc1 (stereo not drawn)	True
CCCC(C(=O)c1ccc(OCCN(C)C)cc1)c1ccccc1-c1ccc(F)cc1 (stereo not drawn)	True
CN(C)CCOc1ccc(C(=O)C(CC2CC2)c2ccccc2-c2ccc(F)cc2)cc1 (stereo not drawn)	True
CN(C)CCOc1ccc(C(=O)Cc2ccccc2-c2ccccc2Cl)cc1	False
CNCCOc1ccc(C(=O)C(CC(C)C)c2ccccc2-c2ccc(F)cc2)cc1 (stereo not drawn)	True
CN(C)CCOc1ccc(C(=O)Cc2ccccc2-c2ccc(F)cc2)cc1	False
CCC(C(=O)c1ccc(OCCNC)cc1)c1ccccc1-c1ccc(F)cc1 (stereo not drawn)	True
CC(C)CC(C(=O)c1ccc(OCCN(C)C)cc1)c1ccccc1-c1ccc(F)cc1 (stereo not drawn)	True
CCCC(C(=O)c1ccc(OCCNC)cc1)c1ccccc1-c1ccc(F)cc1 (stereo not drawn)	True

Cited source: patent US11325883B2
